Value source: patent US20240209100A1

tested system: T1, IL-18 receptor (IL-18Rα/IL-18Rβ) overexpressed on HEK-Blue IL-18 cells (Homo sapiens (Human), UniProt Q13478 19-541; O95256 20-599)
T1 sequence 1: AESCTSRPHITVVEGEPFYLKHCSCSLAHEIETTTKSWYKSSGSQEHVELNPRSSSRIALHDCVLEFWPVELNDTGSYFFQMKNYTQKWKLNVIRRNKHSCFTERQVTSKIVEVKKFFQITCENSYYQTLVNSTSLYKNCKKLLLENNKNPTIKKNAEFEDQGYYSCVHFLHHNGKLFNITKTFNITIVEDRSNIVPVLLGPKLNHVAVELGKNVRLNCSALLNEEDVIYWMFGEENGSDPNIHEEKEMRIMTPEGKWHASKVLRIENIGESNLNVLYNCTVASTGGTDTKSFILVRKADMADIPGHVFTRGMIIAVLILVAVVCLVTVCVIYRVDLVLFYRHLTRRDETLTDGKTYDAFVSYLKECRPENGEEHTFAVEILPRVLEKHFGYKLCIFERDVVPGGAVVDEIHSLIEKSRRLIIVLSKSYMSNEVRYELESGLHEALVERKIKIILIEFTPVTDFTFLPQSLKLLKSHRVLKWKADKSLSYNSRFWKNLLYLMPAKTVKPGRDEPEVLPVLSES
T1 sequence 2: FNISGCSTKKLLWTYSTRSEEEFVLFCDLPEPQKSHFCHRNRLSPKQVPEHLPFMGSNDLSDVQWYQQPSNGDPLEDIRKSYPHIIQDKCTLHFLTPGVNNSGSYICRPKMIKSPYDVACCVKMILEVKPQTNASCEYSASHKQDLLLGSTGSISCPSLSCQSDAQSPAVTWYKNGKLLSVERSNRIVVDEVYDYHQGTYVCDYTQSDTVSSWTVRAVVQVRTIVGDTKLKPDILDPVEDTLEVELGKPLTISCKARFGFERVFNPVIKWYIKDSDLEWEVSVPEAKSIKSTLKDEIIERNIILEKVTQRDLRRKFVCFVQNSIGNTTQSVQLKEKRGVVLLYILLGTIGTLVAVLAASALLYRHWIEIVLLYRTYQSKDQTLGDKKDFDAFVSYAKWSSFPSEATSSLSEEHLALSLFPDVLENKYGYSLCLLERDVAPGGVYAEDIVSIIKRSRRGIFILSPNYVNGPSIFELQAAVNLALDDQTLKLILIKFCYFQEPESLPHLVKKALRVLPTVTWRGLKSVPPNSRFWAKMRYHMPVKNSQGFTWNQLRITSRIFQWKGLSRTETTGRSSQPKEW
protocol details: cell-based or functional assay
Label y when HEK-Blue IL-18: Abs 405 is strictly below 0.7 Abs; otherwise label n.

[in] State whether 0.7 Abs exceeds HEK-Blue IL-18: Abs 405 recorded for DGL248 (bispecific antibody, V domains shown) V domain 1: QLQLVESGGGLVQPGGSLRLSCAASGFTLDYYAISWFRQVPGKEREGVSCISSNGGSTAYADSVKGRFTISRDNTKNTAYLQMNSLKPEDTAIYYCAASARTIQAMCQRSNFPTRYDYWGQGTQVTVSS V domain 2: QLQLVESGGGLVQAGGSLRLSCAASRSITFSHNVMGWYRQAPGKQRELVASIGSGGSTNYVDSVKGRATISRDNAKKTVYLQMNSLKPEDTAVYYCGVVVGVYRGSLGQGTQVTVSS .
[out] y

[in] Input DGL318 (bispecific antibody, V domains shown) V domain 1: QVQLVESGGGLVQAGGSLRLSCAASGRTFSSYDMGWFRQAPGKEREFVAALRWSGGSTSYADSVKGRFTISRDNAKNTVYLHMNSLKPEDTAVYYCAATLETDSGTYWADYWGQGTQVTVSS V domain 2: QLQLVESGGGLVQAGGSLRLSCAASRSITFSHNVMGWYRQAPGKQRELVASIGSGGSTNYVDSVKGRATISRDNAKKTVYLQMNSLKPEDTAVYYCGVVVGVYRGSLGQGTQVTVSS
[out] n

[in] Input DGL294 (bispecific antibody, V domains shown) V domain 1: EVQLVESGGGLVQPGGSLRLSCAASGSIFSINAMGWYRQAPGKQREVVATSTGGGMTNYADSVKGRFTISRDNAKNTVYLQMNSLKPEDTAVYYCNADKDPFFPGDYWGQGTQVTVSS V domain 2: QVQLVESGGDLVLPGGSLKLSCEASGSISSRNSMAWYRRAPGKQRELVAAISSISSGGRTDYADFVKGRFTIFRDTAKNMVYLQMNNLKPEDTAVYDCDDPIRVASLAYDDWGQGTQVTVSS
[out] n

[in] Input DGL323 (bispecific antibody, V domains shown) V domain 1: QVQLQESGGGLVQPGGSLRLSCAASGFIFSNWYMRWVRQAPGEGLEWVSSINSGGDDTDYADSVKGRFTISRDNAKGTLYLQMHSLKPEDTALYYCERGADRVRGQGTQVTVSS V domain 2: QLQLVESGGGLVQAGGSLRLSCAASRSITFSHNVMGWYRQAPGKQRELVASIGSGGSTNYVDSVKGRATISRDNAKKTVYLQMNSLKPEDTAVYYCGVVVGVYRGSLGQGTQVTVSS
[out] y

[in] Input DGL305 (bispecific antibody, V domains shown) V domain 1: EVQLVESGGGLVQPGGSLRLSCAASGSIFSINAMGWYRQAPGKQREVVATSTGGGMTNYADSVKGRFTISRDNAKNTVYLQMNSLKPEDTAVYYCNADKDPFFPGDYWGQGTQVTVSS V domain 2: QVQLQESGGGLVQPGGSLGLSCAASGIKISVNSMAWYRQAPGERREMVAVISSGGSAVYADSVKGRFTISRDNAKNMVYLQMNSLKPEDTAVYYCHPGSAAYRDYWGQGTQVTVSS
[out] y

[in] Input DGL253 (bispecific antibody, V domains shown) V domain 1: QVQLVESGGGLVQAGGSLRLSCAASGRTFSKHAMGWFRQAPGKEREFVAAIDWSGGSTYYADSVKGRFTISRDNAKNTVYLQMDSLKPEDTAVYYCAADSYTDYAQLWLPELESEYDYWGQGTQVTVSS V domain 2: QVQLQESGGGLVQAGGSPRLSCAVSGTAFNINNFMGWYRQAPGKQRELVATITGSSTTNYASSVKGRFTISRDSAKNTVYLQMNSLKPEDTAVYYCNLRRGGWYNYWGQGTQVTVSS
[out] y

[in] Input DGL296 (bispecific antibody, V domains shown) V domain 1: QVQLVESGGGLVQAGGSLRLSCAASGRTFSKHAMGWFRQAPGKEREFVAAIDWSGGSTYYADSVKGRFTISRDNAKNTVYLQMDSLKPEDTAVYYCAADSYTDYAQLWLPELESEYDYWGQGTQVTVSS V domain 2: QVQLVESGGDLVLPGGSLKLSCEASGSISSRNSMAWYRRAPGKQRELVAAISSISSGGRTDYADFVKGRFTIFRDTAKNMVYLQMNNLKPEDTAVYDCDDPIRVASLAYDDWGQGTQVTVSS
[out] y
